# assay-method-text: CCTE_Shafer_MEA_dev_LDH: CCTE's Lactate Dehydrogenase Assay for Cytotoxicity in the Neural Network Formation Assay, Shafer Lab (AID 2284068);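 note: exposure for twelve days from plating with re-dosing on DIV 5 and 9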
# Experimental: CCTE_Shafer_MEA_dev assay is conducted using Axion Biosystems 48 well microelectrode array (MEA) plates and Maestro recording system. Each well of the MEA plate contains a grid of 16 microelectrodes embedded in the culture surface. Electrically active cells, such as neurons, can be cultured over the electrodes, and electrical activity in these cells can be recorded extracellularly. […]
Results filed as inconclusive are left out. The source made the active and inactive calls. Rule for the calls: active = hit-call score of the fitted dose curve at least 0.9, where 1 is the maximum; inconclusive = response in the unintended direction; inactive = score below 0.9.
Labels: active, inactive

molecule	assigned-class
[Cl-].[Cl-].[NH2-].[NH2-].[Pt+4]	active
NC(N)=Nc1nc(CSCCC(N)=NS(N)(=O)=O)cs1	inactive
Cc1c(O)cccc1C(=O)N[C@@H](CSc1ccccc1)[C@H](O)CN1C[C@H]2CCCC[C@H]2C[C@H]1C(=O)NC(C)(C)C	active
CC(C)(C)NCC(O)c1cc(O)cc(O)c1 (stereo not given)	inactive
C[C@@H]1C[C@H]2[C@@H]3CCC4=CC(=O)C=C[C@]4(C)[C@@]3(F)[C@@H](O)C[C@]2(C)[C@@]1(O)C(=O)CO	inactive
C[C@H](CS)C(=O)N1CCC[C@H]1C(=O)O	inactive
CC[C@H](C)C(=O)O[C@H]1CCC=C2C=C[C@H](C)[C@H](CC[C@@H]3C[C@@H](O)CC(=O)O3)[C@H]21	active
c1cc2ccc3ccc4ccc5cccc6c(c1)c2c3c4c56	inactive
CC1(C)S[C@@H]2[C@H](NC(=O)[C@H](N)c3ccccc3)C(=O)N2[C@H]1C(=O)O	inactive
COc1ccc2cc3[n+](cc2c1OC)CCc1cc2c(cc1-3)OCO2	active

---

# Read-out: Interleukin-6 (IL6), IL6 (gene 3569)
# assay-method-text: BSK_CASM3C_IL6: BioMAP Diversity Plus: CASM3C Assay for Interleukin-6 (IL6) Biomarker Activity for (AID 2283040)
# stated-conditions: primary human coronary artery smooth muscle cells; actives raise or lower the signal
Calls of active or inactive are those of the source. How the source made its calls: active means hit-call score of the fitted dose curve at least 0.9, where 1 is the maximum; inactive means score below 0.9.
Classes used: Yes = active, No = inactive

molecule	assigned-class
CCCCCCC(O)CCCCCCCCCCC(=O)OC (centres undefined)	No
C1CN(CCOCCN2CCOCC2)CCO1	No
CC(C)CC(=O)CC(C)CC(C)C (centres undefined)	Yes
Cc1c(C(N)=O)cc([N+](=O)[O-])cc1[N+](=O)[O-]	No
CC[N+](CC)(CC(=O)Nc1c(C)cccc1C)Cc1ccccc1	No
Oc1cccc2ccccc12	No
Sc1nc2ccccc2s1	No
CCC[Si](OC(C)=O)(OC(C)=O)OC(C)=O	No
CCCCC(CC)COC(=O)C=Cc1ccc(OC)cc1 (centres undefined)	No
Cc1cc(-n2nc3ccc(Cl)cc3n2)c(O)c(C(C)(C)C)c1	No
CC(C)C1OCCN1CCOC(=O)NCCCCCCNC(=O)OCCN1CCOC1C(C)C (centres undefined)	No
CCC(C)=NO	No
CCCCCCCCCC/C=C/C1CC(=O)OC1=O (centres undefined)	No
CCCCCCCCCCC1CO1 (centres undefined)	No

---

# Read-out: Collagen IV, COL4A1 (gene 1282)
# assay-method-text: BSK_MyoF_CollagenIV: BioMAP Diversity Plus: MyoF Assay for Collagen IV Biomarker Activity (AID 2284247)
# stated-conditions: primary human lung fibroblasts
Active and inactive are the calls of the source. Rule for the calls: active = hit-call score of the fitted dose curve at least 0.9, where 1 is the maximum; inactive = score below 0.9.
Outcomes: active, inactive

compound	assigned-class
CCCCCCCCCCC1CO1 (stereo not drawn)	inactive
CC[N+](CC)(CC(=O)Nc1c(C)cccc1C)Cc1ccccc1	inactive
CCCCCCC(O)CCCCCCCCCCC(=O)OC (stereo not drawn)	inactive
CC(C)CC(=O)CC(C)CC(C)C (stereo not drawn)	inactive
CN(C)c1ccc(C(c2ccccc2)c2ccc(N(C)C)cc2)cc1	active
COC(=O)/C=C\C(=O)OC	inactive
Cc1cc(-n2nc3ccc(Cl)cc3n2)c(O)c(C(C)(C)C)c1	inactive
O=C(C(=O)c1ccccc1)c1ccccc1	active
